Data origin: ChEMBL document CHEMBL4130350

Experiment Description: Cmax in Sprague-Dawley rat at 20 mg/kg, po by LC-MS/MS analysis
Format: ADME, organism-based
Parameters: dose 20 mg/kg, route oral
Condition Context: in vivo
Measure Name: Cmax (ng/mL)

>>> observed("O=C(c1cc(Cc2n[nH]c(=O)c3ccccc23)ccc1F)N1CCN(C(=O)C2CC2)CC1")
2590

---

Experiment Description: AUC in Sprague-Dawley rat at 2 mg/kg, po by LC-MS/MS analysis
Assay type: ADME, organism-based
Condition Context: in vivo
Measure Name: AUC (ng·h/mL)

>>> observed("Cn1ncnc1[C@H]1c2n[nH]c(=O)c3cc(F)cc(c23)N[C@@H]1c1ccc(F)cc1 [TALAZOPARIB]")
13200

---

Experiment Description: Apparent permeability across basolateral to apical side in human Caco2 cells assessed as drug recovery at 18593.3 pmol after 2 hrs by LC-MS/MS analysis
Format: ADME, cell-based
Condition Context: Caco-2, read-out: Drug recovery
Measure Name: recovery at 2 h (%)

>>> observed("Cn1ncnc1[C@H]1c2n[nH]c(=O)c3cc(F)cc(c23)N[C@@H]1c1ccc(F)cc1")
108

---

Experiment Description: Volume of distribution in Sprague-Dawley rat at 1 mg/kg, iv by LC-MS/MS analysis
Type: ADME, organism-based
Condition Context: in vivo
Measure Name: Vd (L/kg)

>>> observed("Cn1ncnc1[C@H]1c2n[nH]c(=O)c3cc(F)cc(c23)N[C@@H]1c1ccc(F)cc1")
1.1

---

Experiment Description: Clearance in Sprague-Dawley rat at 1 mg/kg, iv by LC-MS/MS analysis
Type: ADME, organism-based
Condition Context: in vivo
Measure Name: clearance (mL/min/kg)

>>> observed("Cn1ncnc1[C@H]1c2n[nH]c(=O)c3cc(F)cc(c23)N[C@@H]1c1ccc(F)cc1")
3.33

---

Experiment Description: AUC in Sprague-Dawley rat at 5 mg/kg, iv by LC-MS/MS analysis
Type: ADME, organism-based
Condition Context: in vivo
Measure Name: AUC (ng·h/mL)

>>> observed("N#Cc1cccnc1N1CCN(C(=O)c2cc(Cc3n[nH]c(=O)c4ccccc34)cc(F)c2F)CC1")
1380

---

Experiment Description: Cmax in Sprague-Dawley rat at 1 mg/kg, iv by LC-MS/MS analysis
Assay type: ADME, organism-based
Design: dose 1 mg/kg, route intravenous
Condition Context: in vivo
Measure Name: Cmax (ng/mL)

>>> observed("Cn1ncnc1[C@H]1c2n[nH]c(=O)c3cc(F)cc(c23)N[C@@H]1c1ccc(F)cc1 [TALAZOPARIB]")
2060

---

Experiment Description: Stability in mouse plasma at 1 uM up to 60 mins by LC-MS/MS analysis
Type: ADME, cell-free
Condition Context: read-out: Stability
Measure Name: remaining at 1 h, 1 µM (%)

>>> observed("Cn1ncnc1[C@H]1c2n[nH]c(=O)c3cc(F)cc(c23)N[C@@H]1c1ccc(F)cc1 [TALAZOPARIB]")
106
>>> observed("N#Cc1cccnc1N1CCN(C(=O)c2cc(Cc3n[nH]c(=O)c4ccccc34)cc(F)c2F)CC1")
105

---

Experiment Description: Cmax in Sprague-Dawley rat at 2 mg/kg, po by LC-MS/MS analysis
Assay type: ADME, organism-based
Parameters: dose 2 mg/kg, route oral
Condition Context: in vivo
Measure Name: Cmax (ng/mL)

>>> observed("Cn1ncnc1[C@H]1c2n[nH]c(=O)c3cc(F)cc(c23)N[C@@H]1c1ccc(F)cc1 [TALAZOPARIB]")
3100
